target.entity: EGFR L858R/T790M (Homo sapiens, UniProt P00533, L858R/T790M)
Sequence (P00533 25-1210 T790M/L858R): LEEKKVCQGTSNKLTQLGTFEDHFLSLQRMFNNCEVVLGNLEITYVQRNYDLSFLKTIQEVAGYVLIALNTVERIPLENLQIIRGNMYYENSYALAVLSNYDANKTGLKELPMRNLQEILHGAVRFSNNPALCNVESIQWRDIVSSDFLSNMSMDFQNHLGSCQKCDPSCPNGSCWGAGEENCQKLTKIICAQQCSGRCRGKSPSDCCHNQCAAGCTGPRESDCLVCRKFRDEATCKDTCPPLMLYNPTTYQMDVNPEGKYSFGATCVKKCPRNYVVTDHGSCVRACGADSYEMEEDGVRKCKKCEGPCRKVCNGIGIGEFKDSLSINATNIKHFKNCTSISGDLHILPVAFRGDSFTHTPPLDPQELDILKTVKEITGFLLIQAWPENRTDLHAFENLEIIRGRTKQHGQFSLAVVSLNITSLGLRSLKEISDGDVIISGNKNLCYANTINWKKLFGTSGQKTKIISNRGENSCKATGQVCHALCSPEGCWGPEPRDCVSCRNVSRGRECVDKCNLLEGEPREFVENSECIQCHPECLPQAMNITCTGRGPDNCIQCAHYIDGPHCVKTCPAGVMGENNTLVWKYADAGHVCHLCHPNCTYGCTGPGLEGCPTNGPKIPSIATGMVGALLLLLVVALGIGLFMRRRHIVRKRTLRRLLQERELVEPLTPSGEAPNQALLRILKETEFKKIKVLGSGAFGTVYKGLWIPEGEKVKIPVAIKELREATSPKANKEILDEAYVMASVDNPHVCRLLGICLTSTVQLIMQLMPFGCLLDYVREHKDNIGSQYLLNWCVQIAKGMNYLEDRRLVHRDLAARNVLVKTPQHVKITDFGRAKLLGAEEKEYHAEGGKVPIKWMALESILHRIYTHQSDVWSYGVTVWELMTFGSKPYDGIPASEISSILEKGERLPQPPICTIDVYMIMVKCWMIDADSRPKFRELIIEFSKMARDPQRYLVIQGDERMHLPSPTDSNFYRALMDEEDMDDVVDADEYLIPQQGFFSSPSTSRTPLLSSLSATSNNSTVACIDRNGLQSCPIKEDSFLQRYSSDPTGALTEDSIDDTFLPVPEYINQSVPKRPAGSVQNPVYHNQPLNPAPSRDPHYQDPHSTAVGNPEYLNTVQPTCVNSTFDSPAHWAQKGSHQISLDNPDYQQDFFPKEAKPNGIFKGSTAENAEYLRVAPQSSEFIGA
protocol.text: HTRF-based EGFR biochemical assay, L858R/T790M enzyme
test.settings: L858R/T790M 0.02 nM enzyme, 100 μM ATP, 30 min preincubation, read-out: LRTM enzyme IC50
Measured IC50 values are reported for all entries that follow.

Known IC50 results, listed for orientation:
> print(dat)
                                   compound  measured
1  CN1CCC(c2ccc(-c3ccc4ncn(C(C(=O)Nc5nccs5)c5ncn6c5CCC6)c(=O)c4c3F)cc2)CC1 (centres unmarked) [Compound 006]  < 0.5 nM
2  CN1CCC(c2ccc(-c3cc(F)c4c(=O)n(C(C(=O)Nc5nccs5)c5ncn6c5C[C@@H](F)C6)ccc4c3)cc2)CC1 (some centres unmarked) [Compound 002]    < 1 nM

Query: Value lookup for IC50; key = CN1CCN(c2ccc(-c3ccc4ncn(C(C(=O)Nc5nccs5)c5ncn6c5CCC6)c(=O)c4c3)cc2)CC1 (centres unmarked) [Compound 007]
Reply: < 5 nM

Query: Value lookup for IC50; key = CN1CCC(c2ccc(-c3cc4ccn(C(C(=O)Nc5nccs5)c5ncn6c5C[C@@H](F)C6)c(=O)c4s3)cc2)CC1 (some centres unmarked) [Compound 004]
Reply: < 0.5 nM

Query: Value lookup for IC50; key = CN1CCC(c2ccc(-c3cc4ccn(C(C(=O)Nc5nccs5)c5ncn6c5CCC6)c(=O)c4s3)cc2)CC1 (centres unmarked) [Compound 003]
Reply: < 0.5 nM

Query: Value lookup for IC50; key = CN1CCC(c2ccc(-c3ccc4c(c3)C(=O)N(C(C(=O)Nc3nccs3)c3ncn5c3CCC5)CO4)cc2)CC1 (centres unmarked) [Compound 008]
Reply: < 0.5 nM

Query: Value lookup for IC50; key = CN1CCC(c2ccc(-c3cc(F)c4c(=O)n(C(C(=O)Nc5nccs5)c5ncn6c5CCC6)ccc4c3)cc2)CC1 (centres unmarked) [Compound 001]
Reply: < 0.5 nM

Query: Value lookup for IC50; key = CN1CCC(c2ccc(-c3ccc4ncn(C(C(=O)Nc5nccs5)c5ncn6c5CCC6)c(=O)c4c3)cc2)CC1 (centres unmarked) [Compound 005]
Reply: < 0.5 nM
